Catalogue of pIC50 values
system: RAW264.7; assay: Cytotoxicity against mouse RAW264.7 cells after 24 hrs by MTT assay; type: cell-based; settings: Mus musculus, RAW264.7, 24 h
pIC50: −log10 of the molar value.

| COMPOUND | SIGN QUALIFIER | pIC50 |
| --- | --- | --- |
| COc1ccc2c(c1O)[C@@]13CCN(C)[C@@H](C2)[C@H]1C[C@@H](OC)[C@H](NS(C)(=O)=O)C3 | < | 4.00 |
| COc1ccc2c(c1O)[C@@]13CCN(C)[C@@H](C2)[C@H]1C[C@@H](OC)[C@H](NS(=O)(=O)c1ccc(C)cc1)C3 | < | 4.00 |
| COc1cc(-c2cc(OC)c(O)c3c2C[C@H]2[C@H]4CCCC[C@@]34CCN2C)c2c(c1O)[C@]13CCCC[C@@H]1[C@H](C2)N(C)CC3 (stereo in doubt; 2a) | = | 5.02 |
| COC1=C[C@@H]2[C@@H]3Cc4c(-c5cc(OC)c(O)c6c5C[C@@H]5NCC[C@]67CC(=O)C(OC)=C[C@H]57)cc(OC)c(O)c4[C@]2(CCN3)CC1=O (stereo in doubt; 3a) | < | 4.00 |
| COC1=C[C@@H]2[C@@H]3Cc4ccc(OC)c(O)c4[C@]2(CCN3)CC1=O | < | 4.00 |
| COc1ccc2c(c1O)[C@@]13CCN(C)[C@@H](C2)[C@H]1Cc1nc2ccccc2nc1C3 | = | 4.24 |
| COc1cc(-c2cc(OC)c(O)c3c2C[C@H]2[C@H]4C[C@@H](OC)[C@H](NS(=O)(=O)c5ccc(C)cc5)C[C@@]34CCN2C)c2c(c1O)[C@@]13CCN(C)[C@@H](C2)[C@H]1C[C@@H](OC)[C@H](NS(=O)(=O)c1ccc(C)cc1)C3 (stereo in doubt; 4a) | = | 4.36 |
